Reported ΔG values are given for each entry in this list.
# experimentalTarget: TsaN^1−392 (TsaD domain of TsaN) (Pandoravirus salinus)
# assayNotes: ITC, nucleotide binding to the TsaD domain
# Parameters: species or system P. salinus
# testConditions: 30 μM TsaN^1−392 titrated with 360 μM ligand

{"compound": "Nc1ncnc2c1ncn2[C@@H]1O[C@H](COP(=O)(O)O)[C@@H](O)[C@H]1O [AMP]", "ΔG / kcal/mol": -6.49}
{"compound": "Nc1ncnc2c1ncn2[C@@H]1O[C@H](CO[P@](=O)(O)O[P@](=O)(O)O[P@@](=O)(O)S)[C@@H](O)[C@H]1O [ATPγS]", "ΔG / kcal/mol": -6.77}
{"compound": "Nc1ncnc2c1ncn2[C@@H]1O[C@H](COP(=O)(O)OP(=O)(O)O)[C@@H](O)[C@H]1O [ADP]", "ΔG / kcal/mol": -7.05}

----------
# experimentalTarget: TsaN^1−392 (TsaD domain of TsaN) (Pandoravirus salinus)
# assayNotes: ITC, nucleotide binding to the TsaD domain
# Set-up: species or system P. salinus
# testConditions: 30 μM TsaN^1−392 titrated with 360 μM ligand

{"chemSmiles": "Nc1ncnc2c1ncn2[C@@H]1O[C@H](CO[P@](=O)(O)O[P@](=O)(O)O[P@@](=O)(O)S)[C@@H](O)[C@H]1O", "ΔH": "-6.02 ± 2.38 kcal/mol"}
{"chemSmiles": "Nc1ncnc2c1ncn2[C@@H]1O[C@H](COP(=O)(O)O)[C@@H](O)[C@H]1O", "ΔH": "-4.74 ± 1.46 kcal/mol"}
{"chemSmiles": "Nc1ncnc2c1ncn2[C@@H]1O[C@H](COP(=O)(O)OP(=O)(O)O)[C@@H](O)[C@H]1O", "ΔH": "-2.74 ± 0.62 kcal/mol"}

----------
# experimentalTarget: TsaN^1−392 (TsaD domain of TsaN) (Pandoravirus salinus)
# Sequence (A0A291ATS8 1-392): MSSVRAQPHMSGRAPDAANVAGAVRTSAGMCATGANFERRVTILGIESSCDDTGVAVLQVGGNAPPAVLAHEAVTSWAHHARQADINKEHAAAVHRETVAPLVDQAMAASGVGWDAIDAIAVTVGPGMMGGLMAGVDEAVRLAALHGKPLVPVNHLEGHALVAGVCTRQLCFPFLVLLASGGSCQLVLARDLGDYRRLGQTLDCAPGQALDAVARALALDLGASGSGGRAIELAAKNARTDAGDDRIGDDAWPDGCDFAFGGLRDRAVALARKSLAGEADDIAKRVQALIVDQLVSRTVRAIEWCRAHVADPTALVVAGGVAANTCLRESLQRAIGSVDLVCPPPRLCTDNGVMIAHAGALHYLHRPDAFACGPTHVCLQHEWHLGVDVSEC

{"chemSmiles": "Nc1ncnc2c1ncn2[C@@H]1O[C@H](CO[P@](=O)(O)O[P@](=O)(O)O[P@@](=O)(O)S)[C@@H](O)[C@H]1O", "Kd": "10.9 µM"}
